# method_notes: HLM stability (High Activity)
# Type: in vitro ADME
# cond: both sexes, human, liver microsomes, pH 7.4, Condition 2 (High Activity), 1.0 mg protein/mL
measurement_kind: half-life at 1 μM (min)
Value expressed in min; do not type the unit.

CNC1(c2ccccc2Cl)CCCCC1=O (racemic) [rac-ketamine, racemic ketamine, reference compound] | 36.8
CN[C@]1(c2cccc(F)c2)CCCCC1=O [Compound 19S] | 95.7
O=C1CCCC[C@@]1(NCCF)c1ccccc1 [Compound 86R] | 55.8
O=C1CCCC[C@@]1(c1ccccc1)N1CCCCC1 [Compound 26S] | 101

half-life at 1 μM recorded for this molecule, CNC1(c2ccccc2F)CCCCC1=O (racemic) [Compound 35rac] , is 148
